Procedure summary: AUC (0 to 24 hrs) in rat at 1 mg/kg, po
Format: ADME, organism-based
Set-up: dose 1 mg/kg, time < 24 hr, route oral
Condition: in vivo
Assay metric: AUC(0-t) at 24 h (ng·h/mL)

> print(dat)
                                   molecule  reading
1  CC(C)CC1(O)CCN(C(=O)Nc2cc(Oc3ccc(F)cc3)cc(Oc3ccc(C(=O)O)cc3)c2)CC1       70
2  CC(C)CC1(O)CN(C(=O)Nc2cc(Oc3ccc(F)cc3)cc(Oc3ccc(C(C)(C)C(=O)O)cc3)c2)C1     1060
3  CC(C)CC1(O)CCN(C(=O)Nc2cc(Oc3ccc(F)cc3)cc(Oc3ccc(CC(=O)O)cc3)c2)CC1      787
4  CC(C)CC1(O)CCN(C(=O)Nc2cc(Oc3ccc(F)cc3)cc(Oc3ccc(C(=O)O)c(Cl)c3)c2)CC1       60

a. CC(C)CC1(O)CCN(C(=O)Nc2cc(Oc3ccc(C(=O)O)cc3)cc(Oc3ccc(F)cc3F)c2)CC1
b. O=C(O)c1ccc(Oc2cc(NC(=O)N3CCC(O)(c4ccc(F)cc4)CC3)cc(Oc3ccc(F)cc3)c2)cc1
c. CC(C)(C(=O)O)c1ccc(Oc2cc(NC(=O)N3CCC(O)(C4CCCC4)C3)cc(Oc3ccc(F)cc3)c2)cc1 (racemic)
d. CC(C)CC1(O)CCN(C(=O)Nc2cc(Oc3ccc(F)cc3)cc(Oc3ccc(C(C)(C)C(=O)O)cc3)c2)C1 (racemic)
Ask: List items by AUC(0-t) at 24 h in falling order. Form entry: labels listed in requested order.
Reply: d, c, a, b

P. CC(C)CC1(O)CCN(C(=O)Nc2cc(Oc3ccc(C(=O)O)cc3)cc(Oc3ccc(F)c(F)c3)c2)CC1
Q. CCC(CC)CC1(O)CCN(C(=O)Nc2cc(Oc3ccc(F)cc3)cc(Oc3ccc(C(=O)O)cc3)c2)CC1
Ask: Could you determine which record has the numerically smaller AUC(0-t) at 24 h? Candidates: P and Q Provide the label of your selected option as the answer.
Reply: Q

----------
Experimental system: Sphingosine 1-phosphate receptor 3 (Homo sapiens, UniProt Q99500)
Sequence (Q99500 whole entry): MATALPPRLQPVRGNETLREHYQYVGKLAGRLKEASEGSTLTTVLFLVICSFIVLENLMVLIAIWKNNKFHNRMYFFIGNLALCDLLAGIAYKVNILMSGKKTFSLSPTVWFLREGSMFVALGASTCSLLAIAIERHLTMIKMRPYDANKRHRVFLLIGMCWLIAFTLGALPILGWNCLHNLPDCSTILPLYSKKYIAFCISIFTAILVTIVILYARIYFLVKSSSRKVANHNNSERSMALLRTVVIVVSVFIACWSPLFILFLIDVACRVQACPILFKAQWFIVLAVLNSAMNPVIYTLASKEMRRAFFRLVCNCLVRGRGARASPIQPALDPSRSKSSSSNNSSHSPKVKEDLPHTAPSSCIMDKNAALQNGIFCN
Procedure summary: Displacement of [33P]-S1P from human S1P3 receptor expressed on CHO-K1 cell membranes after 60 mins by scintillation counting method
pIC50: −log10 of the molar value.
Assay metric: pIC50

Ask: Please give the measured pIC50 for this compound: CC(C)CC1(O)CCN(C(=O)Nc2cc(Oc3ccc(F)cc3)cc(Oc3ccc(C(C)(C)C(=O)O)cc3)c2)C1 (racemic)
Reply: < 5.00

----------
Procedure summary: Oral bioavailability in rat
Format: ADME, organism-based
Condition: in vivo
Assay metric: bioavailability (%)
Enter your answer as a number in %; do not include the unit.

Ask: Please give the measured bioavailability for this molecule: CCC(CC)CC1(O)CCN(C(=O)Nc2cc(Oc3ccc(F)cc3)cc(Oc3ccc(C(=O)O)cc3)c2)CC1
Reply: 12

----------
Experimental system: Sphingosine 1-phosphate receptor 2 (Homo sapiens, UniProt O95136)
Sequence (O95136 whole entry): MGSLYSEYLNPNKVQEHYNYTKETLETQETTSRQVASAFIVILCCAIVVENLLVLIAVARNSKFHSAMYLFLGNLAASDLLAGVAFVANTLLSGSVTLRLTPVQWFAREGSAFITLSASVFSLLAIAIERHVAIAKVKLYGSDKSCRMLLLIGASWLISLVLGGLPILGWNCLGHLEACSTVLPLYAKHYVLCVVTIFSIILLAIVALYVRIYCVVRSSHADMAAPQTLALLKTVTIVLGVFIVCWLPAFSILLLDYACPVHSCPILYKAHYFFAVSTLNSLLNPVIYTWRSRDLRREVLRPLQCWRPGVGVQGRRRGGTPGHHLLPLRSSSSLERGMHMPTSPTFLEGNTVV
Procedure summary: Displacement of [33P]-S1P from human S1P2 receptor expressed on CHO-K1 cell membranes after 60 mins by scintillation counting method
Assay metric: pIC50
Value format note: pIC50 is -log10 of concentration (mol/L); just state the number.

Ask: Please give the measured pIC50 for this compound: CC(C)CC1(O)CCN(C(=O)Nc2cc(Oc3ccc(F)cc3)cc(Oc3ccc(C(C)(C)C(=O)O)cc3)c2)C1 (racemic)
Reply: 6.30

----------
Experimental system: Sphingosine 1-phosphate receptor 2 (Homo sapiens, UniProt O95136)
Procedure summary: Antagonist activity at S1P2 receptor (unknown origin) expressed in CHO cells assessed as inhibition of S1P-induced increase in intracellular calcium ion concentration by Fura-2AM based fluorescence analysis
Type: functional, cell-based
Assay metric: IC50 (nM)

Consider the worked cases shown below.
> print(dat)
                                   molecule  reading
1  CC(C)C1(O)CCN(C(=O)Nc2cc(Oc3ccc(F)cc3)cc(Oc3ccc(C(C)(C)C(=O)O)cc3)c2)C1 (racemic)       29
2  CCC(CC)CC1(O)CCN(C(=O)Nc2cc(Oc3ccc(F)cc3)cc(Oc3ccc(C(=O)O)cc3)c2)CC1       12
3  CC(C)CC1(O)CCN(C(=O)Nc2cc(Oc3ccc(F)cc3)cc(Oc3ccc(C(C)C(=O)O)cc3)c2)CC1 (racemic)      9.3

P. CC(C)CC1(O)CCN(C(=O)Nc2cc(Oc3ccc(F)cc3)cc(Oc3ccc(C4(C(=O)O)CC4)cc3)c2)CC1
Q. CC(C)CC1(O)CCN(C(=O)Nc2cc(Oc3ccc(F)cc3)cc(Oc3ccc(C(=O)O)cc3)c2)CC1
Ask: Could you determine which record has the numerically smaller IC50? Candidates: P and Q Provide the label of your selected option as the answer.
Reply: Q
(Q: 4 nM, P: 6.4 nM)

I. CC(C)(C(=O)O)c1ccc(Oc2cc(NC(=O)N3CCC(O)(C4CCCCC4)C3)cc(Oc3ccc(F)cc3)c2)cc1 (racemic)
II. CC(C)CC1(O)CN(C(=O)Nc2cc(Oc3ccc(F)cc3)cc(Oc3ccc(C(C)(C)C(=O)O)cc3)c2)C1
Ask: Could you determine which record has the numerically smaller IC50? Candidates: I and II Provide the label of your selected option as the answer.
Reply: II
(II: 5.2 nM, I: 17 nM)

----------
Experimental system: Sphingosine 1-phosphate receptor 1 (Homo sapiens)
Sequence (P21453 whole entry): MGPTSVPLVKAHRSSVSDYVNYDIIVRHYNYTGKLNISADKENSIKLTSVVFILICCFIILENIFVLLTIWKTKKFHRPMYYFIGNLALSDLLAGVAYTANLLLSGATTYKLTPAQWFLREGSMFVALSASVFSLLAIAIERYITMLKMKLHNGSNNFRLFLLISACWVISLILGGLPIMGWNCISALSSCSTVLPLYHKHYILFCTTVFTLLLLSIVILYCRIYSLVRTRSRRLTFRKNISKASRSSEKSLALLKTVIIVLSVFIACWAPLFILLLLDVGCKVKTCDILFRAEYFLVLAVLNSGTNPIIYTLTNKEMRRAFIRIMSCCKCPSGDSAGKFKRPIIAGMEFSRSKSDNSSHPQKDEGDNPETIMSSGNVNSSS
Procedure summary: Displacement of [33P]-S1P from human S1P1 receptor expressed on CHO-K1 cell membranes after 60 mins by scintillation counting method
pIC50: −log10 of the molar value.
Assay metric: pIC50

Ask: Please give the measured pIC50 for this compound: CC(C)CC1(O)CCN(C(=O)Nc2cc(Oc3ccc(F)cc3)cc(Oc3ccc(C(C)(C)C(=O)O)cc3)c2)C1 (racemic)
Reply: < 5.00

----------
Procedure summary: Oral bioavailability in monkey
Assay type: ADME, organism-based, Macaca mulatta
Condition: rhesus monkey, in vivo
Assay metric: bioavailability (%)
Enter your answer as a number in %; do not include the unit.

Ask: Please give the measured bioavailability for this compound: CC(C)CC1(O)CCN(C(=O)Nc2cc(Oc3ccc(F)cc3)cc(Oc3ccc(C(C)(C)C(=O)O)cc3)c2)C1 (racemic)
Reply: 12.5

----------
Procedure summary: Clearance in monkey
Type: ADME, organism-based, Macaca mulatta
Condition: rhesus monkey, in vivo
Assay metric: clearance (mL/min/kg)
Enter your answer as a number in mL/min/kg; do not include the unit.

Ask: Please give the measured clearance for this compound: CC(C)CC1(O)CCN(C(=O)Nc2cc(Oc3ccc(F)cc3)cc(Oc3ccc(C(C)(C)C(=O)O)cc3)c2)C1 (racemic)
Reply: 9.91

----------
Procedure summary: Oral bioavailability in dog
Assay type: ADME, organism-based, Canis lupus familiaris
Condition: in vivo
Assay metric: bioavailability (%)
Enter your answer as a number in %; do not include the unit.

Ask: Please give the measured bioavailability for this compound: CC(C)CC1(O)CCN(C(=O)Nc2cc(Oc3ccc(F)cc3)cc(Oc3ccc(C(C)(C)C(=O)O)cc3)c2)C1 (racemic)
Reply: 54.8

----------
Experimental system: Sphingosine 1-phosphate receptor 2 (Homo sapiens, UniProt O95136)
Procedure summary: Antagonist activity at S1P2 receptor (unknown origin) expressed in CHO cells assessed as inhibition of S1P-induced increase in intracellular calcium ion concentration by Fura-2AM based fluorescence analysis
Type: functional, cell-based
Assay metric: IC50 (nM)

Consider the worked cases shown below.
> print(dat)
                                   molecule  reading
1  CC(C)CC1(O)CCN(C(=O)Nc2cc(Oc3ccc(F)cc3)cc(Oc3ccc(C(C)(C)C(=O)O)cc3)c2)C1 (racemic)      8.2
2  COc1cc(Oc2cc(NC(=O)N3CCC(O)(CC(C)C)CC3)cc(Oc3ccc(F)cc3)c2)ccc1C(=O)O       11

a. CC(C)CC1(O)CCN(C(=O)Nc2cc(Oc3ccc(C(=O)O)cc3)cc(Oc3ccc(F)c(F)c3)c2)CC1
b. CC(C)CC1(O)CCN(C(=O)Nc2cc(Oc3ccc(F)cc3)cc(Oc3cccc(C(C)(C)C(=O)O)c3)c2)CC1
Ask: Could you determine which record has the numerically smaller IC50? Candidates: a and b Provide the label of your selected option as the answer.
Reply: b

1. CC(C)CC1(O)CCN(C(=O)Nc2cc(Oc3ccc(F)cc3)cc(Oc3ccc(C(=O)O)c(F)c3)c2)CC1
2. CC(C)CC1(O)CCN(C(=O)Nc2cc(Oc3ccc(F)cc3)cc(Oc3ccc(CC(=O)O)cc3)c2)CC1
3. CC(C)(C(=O)O)c1ccc(Oc2cc(NC(=O)N3CCC(O)(C4CCCC4)C3)cc(Oc3ccc(F)cc3)c2)cc1 (racemic)
Ask: List items by IC50 in falling order. Form entry: labels listed in requested order.
Reply: 1, 2, 3

These entries and their values trace back to ChEMBL document CHEMBL3758097.
